- tested system: Insulin receptor-related protein (Homo sapiens)
- condition details: at 10 µM
measure: residual activity (%)
One number for each entry, in %.

Worked examples follow.
>  <substance smiles>
Oc1ccc(Nc2nc(-c3ccc(Cl)cc3)cs2)cc1

>  <measure>
residual activity

>  <unit spec>
%

>  <data value>
85

$$$$
>  <substance smiles>
COc1cc2ncnc(N3CCN(C(=O)Nc4ccc(Oc5ccccc5)cc4)CC3)c2cc1OC

>  <measure>
residual activity

>  <unit spec>
%

>  <data value>
80

$$$$
>  <substance smiles>
Oc1ccc(-c2nc(-c3ccc(F)cc3)c(-c3ccncc3)[nH]2)cc1

>  <measure>
residual activity

>  <unit spec>
%

>  <data value>
98

$$$$

Okay, here is my list. What is residual activity for each of these?
1. Cc1nc(-c2ccccc2)c(-c2ccncc2)o1
2. Cc1ccc(S(=O)(=O)/C=C/C#N)cc1
3. O=C1NC(=O)/C(=C/c2ccc3c(c2)OC(F)(F)O3)S1
4. Oc1c2ccccc2c2c3c(cccc13)N=N2
5. CN(C)c1ccc(/C=C2\C(=O)Nc3ccccc32)cc1
6. CN(C)CCCn1cc(C2=C(c3c[nH]c4ccccc34)C(=O)NC2=O)c2ccccc21

123
106
99
51
23
75

Okay, here is my list. What is residual activity for each of these?
1. Cc1cc(Nc2nc(-c3ccccc3)nc3ccccc23)n[nH]1
2. N#C/C(=C(\N)Sc1ccc(N)cc1)c1ccccc1C(F)(F)F

1: 1; 2: 101

###

Task for the reader: assign each of the following molecules its reported residual activity.
- tested system: Serine/threonine-protein kinase Chk1 (Homo sapiens) (UniProt O14757)
- Sequence (whole entry): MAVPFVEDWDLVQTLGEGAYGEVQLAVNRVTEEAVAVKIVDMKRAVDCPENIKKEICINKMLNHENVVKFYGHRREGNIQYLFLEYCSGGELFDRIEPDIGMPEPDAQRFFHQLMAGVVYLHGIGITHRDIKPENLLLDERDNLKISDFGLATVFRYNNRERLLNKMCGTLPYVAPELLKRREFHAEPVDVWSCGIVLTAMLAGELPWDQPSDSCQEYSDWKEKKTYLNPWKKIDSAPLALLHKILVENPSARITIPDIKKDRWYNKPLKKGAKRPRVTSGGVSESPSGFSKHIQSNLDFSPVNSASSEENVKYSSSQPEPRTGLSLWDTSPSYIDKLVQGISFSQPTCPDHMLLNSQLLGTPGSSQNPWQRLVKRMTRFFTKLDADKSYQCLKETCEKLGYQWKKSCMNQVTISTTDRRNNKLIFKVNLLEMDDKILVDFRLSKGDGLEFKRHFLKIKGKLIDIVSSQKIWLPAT
- condition details: at 1 µM
Give bare numbers, in %.

Worked examples follow.
>  <molecule>
CC#CC(=O)Nc1cc2c(Nc3ccc(F)c(Cl)c3)ncnc2cn1

>  <tested system>
Serine/threonine-protein kinase Chk1 (Homo sapiens) (UniProt O14757)

>  <unit spec>
%

>  <data value>
89

$$$$
>  <molecule>
O=C1NC(=O)c2c1c1c3ccccc3[nH]c1c1[nH]c3cc(Br)ccc3c21

>  <tested system>
Serine/threonine-protein kinase Chk1 (Homo sapiens) (UniProt O14757)

>  <unit spec>
%

>  <data value>
77

$$$$
>  <molecule>
O=C1Nc2ccccc2/C1=C1/Nc2ccccc2/C1=N\OCCC(O)CO (stereo not given)

>  <tested system>
Serine/threonine-protein kinase Chk1 (Homo sapiens) (UniProt O14757)

>  <unit spec>
%

>  <data value>
68

$$$$
>  <molecule>
Oc1c2ccccc2c2c3c(cccc13)N=N2

>  <tested system>
Serine/threonine-protein kinase Chk1 (Homo sapiens) (UniProt O14757)

>  <unit spec>
%

>  <data value>
72

$$$$
>  <molecule>
c1ccc(-c2n[nH]cc2-c2ccnc3ccccc23)nc1

>  <tested system>
Serine/threonine-protein kinase Chk1 (Homo sapiens) (UniProt O14757)

>  <unit spec>
%

>  <data value>
89

$$$$

Okay, here is my list. What is residual activity for each of these?
1. CO[C@@H]1[C@H](N(C)C(=O)c2ccccc2)C[C@H]2O[C@]1(C)n1c3ccccc3c3c4c(c5c6ccccc6n2c5c31)C(=O)NC4
2. NC(=O)c1ccc2[nH]c(-c3ccc(Oc4ccc(Cl)cc4)cc3)nc2c1
3. C[C@@H](N)[C@H]1CC[C@H](C(=O)Nc2ccncc2)CC1
4. CNc1cc2c(Nc3cccc(Br)c3)ncnc2cn1
5. CO[C@H]1[C@@H](OC)C[C@H](C)[C@@H](OC)C2=CC(=O)C=C(NC(=O)/C(C)=C/C=C/[C@H](OC)[C@@H](OC(N)=O)/C(C)=C/[C@@H]1C)C2=O

1. 59
2. 91
3. 107
4. 88
5. 96

Measured values drawn from ChEMBL document CHEMBL2218924 for this set.
